# Measured target: CDK2/Cyclin A2 (Homo sapiens) (UniProt P24941+P20248)
# Experiment notes: Inhibition of recombinant full length human His-tagged CDK2/Cyclin-A expressed in baculovirus expression system at 1 uM relative to control

# Smi, inhibition [%]
measured = [
    ("COc1ccc(S(C)(=O)=O)cc1C(=O)Nc1cccc(-c2nncn2C(C)C)n1", 4),
    ("COc1ccc(C(N)=O)cc1C(=O)Nc1cccc(-c2nncn2C(C)C)n1", 33),
    ("COc1ccc(S(N)(=O)=O)cc1C(=O)Nc1cccc(-c2nncn2C(C)C)n1", 5),
    ("COc1cc(C)c(S(C)(=O)=O)cc1C(=O)Nc1cccc(-c2nncn2C(C)C)n1", 2),
    ("COc1cc(C)c(S(N)(=O)=O)cc1C(=O)Nc1cccc(-c2nncn2C(C)C)n1", 5),
    ("COc1cc(C)c(C(N)=O)cc1C(=O)Nc1cccc(-c2nncn2C(C)C)n1", 57),
]

----------
# Measured target: Mitogen-activated protein kinase kinase kinase 5 (Homo sapiens, UniProt Q99683)
# Sequence (Q99683 whole entry): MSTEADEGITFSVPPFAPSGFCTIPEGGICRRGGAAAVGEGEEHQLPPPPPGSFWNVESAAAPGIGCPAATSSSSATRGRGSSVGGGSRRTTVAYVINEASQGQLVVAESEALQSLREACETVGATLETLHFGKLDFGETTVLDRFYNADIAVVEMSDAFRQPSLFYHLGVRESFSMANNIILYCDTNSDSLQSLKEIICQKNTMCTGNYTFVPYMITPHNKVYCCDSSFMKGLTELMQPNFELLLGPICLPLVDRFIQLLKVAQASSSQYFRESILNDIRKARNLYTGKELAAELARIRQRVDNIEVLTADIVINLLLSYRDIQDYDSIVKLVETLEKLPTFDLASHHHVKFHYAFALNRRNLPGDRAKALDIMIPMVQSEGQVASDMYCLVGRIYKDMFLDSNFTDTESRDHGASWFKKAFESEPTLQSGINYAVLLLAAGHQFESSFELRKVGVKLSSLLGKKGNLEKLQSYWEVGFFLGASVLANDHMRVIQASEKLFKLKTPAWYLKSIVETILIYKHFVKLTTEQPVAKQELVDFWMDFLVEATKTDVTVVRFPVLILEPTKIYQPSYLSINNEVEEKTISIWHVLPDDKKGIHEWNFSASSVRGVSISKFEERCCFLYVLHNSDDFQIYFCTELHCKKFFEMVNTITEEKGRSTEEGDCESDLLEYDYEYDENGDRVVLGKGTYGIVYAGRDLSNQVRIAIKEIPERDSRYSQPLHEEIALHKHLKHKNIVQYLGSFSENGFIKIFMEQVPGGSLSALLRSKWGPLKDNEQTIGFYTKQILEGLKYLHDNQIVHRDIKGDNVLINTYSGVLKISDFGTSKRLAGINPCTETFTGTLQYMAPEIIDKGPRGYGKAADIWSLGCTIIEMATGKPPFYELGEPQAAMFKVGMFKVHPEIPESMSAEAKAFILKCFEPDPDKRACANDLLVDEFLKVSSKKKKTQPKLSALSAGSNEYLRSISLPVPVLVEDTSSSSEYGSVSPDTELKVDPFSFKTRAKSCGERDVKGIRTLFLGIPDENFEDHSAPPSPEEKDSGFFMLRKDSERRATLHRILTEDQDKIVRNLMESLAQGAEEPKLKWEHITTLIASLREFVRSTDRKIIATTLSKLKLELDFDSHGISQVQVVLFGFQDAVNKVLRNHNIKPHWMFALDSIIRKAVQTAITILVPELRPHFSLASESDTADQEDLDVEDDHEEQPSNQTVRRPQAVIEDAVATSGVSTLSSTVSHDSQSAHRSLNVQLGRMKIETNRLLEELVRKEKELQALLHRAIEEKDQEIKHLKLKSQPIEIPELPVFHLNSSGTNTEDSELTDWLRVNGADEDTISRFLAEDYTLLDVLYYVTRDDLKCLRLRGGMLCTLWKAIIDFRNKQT
# Experiment notes: Inhibition of recombinant full length human GST-tagged ASK1 expressed in baculovirus expression system using STK3 peptide substrate preincubated for 15 mins followed by substrate addition measured after 90 mins in presence of 1 mM ATP by HTRF assay
As shown below, each of these compounds has a reported IC50 value.

# Smi, Unit tag, IC50
measured = [
    ("COc1cc(C)c(S(N)(=O)=O)cc1C(=O)Nc1cccc(-c2nncn2C(C)C)n1", "nM", 0.1),
    ("CCS(=O)(=O)Nc1cccc(C(=O)Nc2cccc(-c3nncn3C(C)C)n2)c1", "nM", 73),
    ("COc1cc(C)c(S(C)(=O)=O)cc1C(=O)Nc1cccc(-c2nncn2C(C)C)n1", "nM", 4),
    ("COc1cc(C)c(C(N)=O)cc1C(=O)Nc1cccc(-c2nncn2C(C)C)n1", "nM", 0.42),
    ("COc1ccc(C(N)=O)cc1C(=O)Nc1cccc(-c2nncn2C(C)C)n1", "nM", 1),
    ("CC(C)n1cnnc1-c1cccc(NC(=O)c2cccc(-c3ncc[nH]3)c2)n1", "nM", 170),
]

Values were extracted from ChEMBL document CHEMBL4251655.
